Origin of measurements: patent EP0786252A1

Tested on: lymphocytic leukemia P388 cells
Test: Antiproliferative activity against drug-resistant tumor cells (cell count after 72 hours)
Assay type: cell-based
Settings: P388 cells, 72 hours incubation; read-out: IC50
quantity.kind: IC50

{"compound": "[NH2][Pt]([NH2])([Cl])[Cl] [CDDP, Cisplatin]", "observed": "75.4 nM"}

----------
System: lymphocytic leukemia P388 cells
Assay: Antiproliferative activity against drug-resistant tumor cells (cell count after 72 hours)
Assay type: cell-based
Details: Mus musculus; P388 cells, 72 hours incubation; read-out: IC50
pIC50: −log10 of the molar value.
quantity.kind: pIC50

{"chemical.string": "COc1cccc2c1C(=O)c1c(O)c3c(c(O)c1C2=O)C[C@@](O)(C(=O)CO)C[C@@H]3O[C@H]1C[C@H](N)[C@H](O)[C@H](C)O1", "measurement.target": "lymphocytic leukemia P388 cells", "observed": 8.18}

----------
Tested on: mitomycin C-resistant P388 cells (P388/MMC)
Experiment: Antiproliferative activity against drug-resistant tumor cells (cell count after 72 hours)
Format: cell-based
Details: P388/MMC cells, 72 hours incubation; read-out: IC50
pIC50: −log10 of the molar value.
quantity.kind: pIC50

{"compound": "[NH2][Pt]([NH2])([Cl])[Cl] [CDDP, Cisplatin]", "observed": 5.96}

----------
Test: Acute toxicity, intravenous administration
Type: in vivo
Settings: mouse, in vivo, male ddY mice, 30 days after administration, probit analysis

{"molecule": "COC(=O)c1c(C)[nH]c2c(OC(=O)N3CCN(C)CC3)cc3c(c12)C(CBr)CN3C(=O)c1cc2cc(OC)c(OC)c(OC)c2[nH]1 (stereo not shown) [Compound 1]", "unit.abbreviation": "mg/kg", "LD50 at 720 h": 0.81}

----------
Test system: mitomycin C-resistant P388 cells (P388/MMC)
Assay: Antiproliferative activity against drug-resistant tumor cells (cell count after 72 hours)
Assay type: cell-based
Details: Mus musculus, P388, 72 h
Procedure: Compound (I) was tested for its antiproliferative activity against lymphocytic leukemia P388 cells, adriamycin-resistant P388 cells (P388/ADM), cisplatin-resistant P388 cells (P388/CDDP), cyclophosphamide-resistant P388 cells (P388/CPM), and mitomycin C-resistant P388 cells (P388/MMC), in the manner described below. […] The cells were further incubated in the carbon dioxide incubator for 72 hours, then the culture supernatant was removed, and the number of the cells was counted using a cell counter. […]
pIC50: −log10 of the molar value.

{"molecule": "COC(=O)c1c(C)[nH]c2c(OC(=O)N3CCN(C)CC3)cc3c(c12)C(CBr)CN3C(=O)c1cc2cc(OC)c(OC)c(OC)c2[nH]1 (centres unmarked) [Compound 1]", "measurement.target": "mitomycin C-resistant P388 cells (P388/MMC)", "measurement.qualifier": "=", "pIC50": 7.82}
{"molecule": "CO[C@@]12[C@H](COC(N)=O)C3=C(C(=O)C(C)=C(N)C3=O)N1C[C@@H]1N[C@@H]12 [MMC, Mitomycin C]", "measurement.target": "mitomycin C-resistant P388 cells (P388/MMC)", "measurement.qualifier": "<", "pIC50": 6.52}

----------
Test system: cyclophosphamide-resistant P388 cells (P388/CPM)
Assay: Antiproliferative activity against drug-resistant tumor cells (cell count after 72 hours)
Format: cell-based
Settings: Mus musculus, P388, 72 h
Description: Compound (I) was tested for its antiproliferative activity against lymphocytic leukemia P388 cells, adriamycin-resistant P388 cells (P388/ADM), cisplatin-resistant P388 cells (P388/CDDP), cyclophosphamide-resistant P388 cells (P388/CPM), and mitomycin C-resistant P388 cells (P388/MMC), in the manner described below. […] The cells were further incubated in the carbon dioxide incubator for 72 hours, then the culture supernatant was removed, and the number of the cells was counted using a cell counter. […]

{"compound": "CO[C@@]12[C@H](COC(N)=O)C3=C(C(=O)C(C)=C(N)C3=O)N1C[C@@H]1N[C@@H]12", "measurement.target": "cyclophosphamide-resistant P388 cells (P388/CPM)", "IC50 / nM": 94.4}
{"compound": "COC(=O)c1c(C)[nH]c2c(OC(=O)N3CCN(C)CC3)cc3c(c12)C(CBr)CN3C(=O)c1cc2cc(OC)c(OC)c(OC)c2[nH]1 (centres unmarked)", "measurement.target": "cyclophosphamide-resistant P388 cells (P388/CPM)", "IC50 / nM": 6.34}

----------
System: adriamycin-resistant P388 cells (P388/ADM)
Assay: Antiproliferative activity against drug-resistant tumor cells (cell count after 72 hours)
Format: cell-based
Conditions: Mus musculus; P388/ADM cells, 72 hours incubation; read-out: IC50
pIC50: −log10 of the molar value.

{"compound": "COc1cccc2c1C(=O)c1c(O)c3c(c(O)c1C2=O)C[C@@](O)(C(=O)CO)C[C@@H]3O[C@H]1C[C@H](N)[C@H](O)[C@H](C)O1 [ADM, Adriamycin]", "pIC50": 6.24}

----------
System: adriamycin-resistant P388 cells (P388/ADM)
Assay: Antiproliferative activity against drug-resistant tumor cells (cell count after 72 hours)
Format: cell-based
Conditions: P388/ADM cells, 72 hours incubation; read-out: IC50
pIC50: −log10 of the molar value.

{"compound": "[NH2][Pt]([NH2])([Cl])[Cl] [CDDP, Cisplatin]", "pIC50": 7.05}
